Reference source for all entries: ChEMBL document CHEMBL1134514

ED50 values for the compounds below.
# targetUnderTest: GABA transporter (Mus musculus) (UniProt P31650+P31651+P31649+P31648)
# experimentalProtocol: In vivo anticonvulsant effect measured as inhibition of DMCM -induced seizures in mice after ip administration.
# Assay type: functional, organism-based
endpointName: ED50 (mg/kg)

compound	endpointName	rel	recordedResult
Cl.O=C(O)[C@@H]1CCCN(CCOCCN2c3ccccc3CCc3ccccc32)C1	ED50	=	15
Cl.O=C(O)[C@@H]1CCCN(CCOCCN2c3ccccc3Sc3ccc(C(F)(F)F)cc32)C1	ED50	=	38
Cl.O=C(O)[C@H]1CCCN(CCOC/C=C2\c3ccccc3CCc3ccc(Cl)cc32)C1	ED50	=	50
Cl.O=C(O)[C@@H]1CCCN(CCOCCN2c3ccccc3C=Cc3ccccc32)C1	ED50	=	30
Cl.O=C(O)[C@@H]1CCCN(CCON=C2c3cc(Cl)ccc3CCc3ccc(Cl)cc32)C1	ED50	=	35
O=C(O)C1CCCN(CCC=C2c3ccccc3CCc3ccccc32)C1 (configuration not stated)	ED50	>	60
Cl.O=C(O)[C@@H]1CCCN(CCOCCN2c3cc(Cl)ccc3CCc3ccc(Cl)cc32)C1	ED50	=	45
Cl.O=C(O)[C@@H]1CCCN(CCOCCN2c3ccccc3Sc3ccccc32)C1	ED50	=	30
Cl.O=C(O)[C@@H]1CCCN(CCCOCC=C2c3ccccc3CCc3ccccc32)C1	ED50	=	60
Cl.O=C(O)[C@@H]1CCCN(CCOCCN2c3ccccc3CCc3ccc(Cl)cc32)C1	ED50	=	15
Cl.O=C(O)[C@@H]1CCCN(CCON=C2c3ccccc3CCc3ccccc32)C1	ED50	=	30
Cl.O=C(O)[C@H]1CCCN(CCOCCC2c3ccccc3CCc3ccccc32)C1	ED50	=	23
Cl.O=C(O)[C@H]1CCCN(CCOCC=C2c3ccccc3CCc3ccccc32)C1	ED50	=	30
Cl.O=C(O)[C@@H]1CCCN(CCOCCN2c3ccccc3CCCc3ccccc32)C1	ED50	=	60
Cl.O=C(O)[C@@H]1CCCN(CCOCCCN2c3ccccc3CCc3ccccc32)C1	ED50	=	50
Cl.O=C(O)CC1CCN(CCOCCN2c3ccccc3CCc3ccccc32)C1 (configuration not stated)	ED50	=	31
Cl.O=C(O)C1=CCCN(CCOCCN2c3ccccc3CCc3ccccc32)C1	ED50	=	7.3
